Tested on: BEN
Experiment: relative viability (nuclei count vs DMSO), 5 days (fraction); higher = more cells survive
Details: first compound 0.04 µM
quantity.measured: relative viability

compound | quantity.measured | reading
O=C(O)c1ccc(-c2c[nH]c3ncc(-c4ccccc4)cc23)cc1C1CCCC1 + CC1(C)CCC(c2ccc(Cl)cc2)=C(CN2CCN(c3ccc(C(=O)NS(=O)(=O)c4ccc(N[C@H](CCN5CCOCC5)CSc5ccccc5)c(S(=O)(=O)C(F)(F)F)c4)cc3)CC2)C1 [Navitoclax] (partner 0.5 µM) | relative viability | 0.06
O=C(O)c1ccc(-c2c[nH]c3ncc(-c4ccccc4)cc23)cc1C1CCCC1 + CC(=O)c1c(C)c2cnc(Nc3ccc(N4CCNCC4)cn3)nc2n(C2CCCC2)c1=O [Palbociclib] (partner 0.5 µM) | relative viability | 0.459
O=C(O)c1ccc(-c2c[nH]c3ncc(-c4ccccc4)cc23)cc1C1CCCC1 + CC(C)C[C@H](NC(=O)[C@H](Cc1ccccc1)NC(=O)c1cnccn1)B(O)O [Bortezomib] (partner 0.002 µM) | relative viability | 0.721
O=C(O)c1ccc(-c2c[nH]c3ncc(-c4ccccc4)cc23)cc1C1CCCC1 + COc1cc2c(Oc3ccc(NC(=O)C4(C(=O)Nc5ccc(F)cc5)CC4)cc3F)ccnc2cc1OCCCN1CCOCC1 [Foretinib] (partner 0.25 µM) | relative viability | 0.586
O=C(O)c1ccc(-c2c[nH]c3ncc(-c4ccccc4)cc23)cc1C1CCCC1 + CC(=O)Nc1cccc(-n2c(=O)n(C3CC3)c(=O)c3c(Nc4ccc(I)cc4F)n(C)c(=O)c(C)c32)c1 [Trametinib] (partner 0.02 µM) | relative viability | 1.19
O=C(O)c1ccc(-c2c[nH]c3ncc(-c4ccccc4)cc23)cc1C1CCCC1 + CS(=O)(=O)CCNCc1ccc(-c2ccc3ncnc(Nc4ccc(OCc5cccc(F)c5)c(Cl)c4)c3c2)o1 [Lapatinib] (partner 2 µM) | relative viability | 0.717

* * *

Test system: LXF-289
Assay: relative viability (nuclei count vs DMSO), 5 days (fraction); higher = more cells survive
Conditions: first compound 0.01581 µM
The following compounds are listed with their measured relative viability values.

compound | relative viability
CC1(C)CCC(c2ccc(Cl)cc2)=C(CN2CCN(c3ccc(C(=O)NS(=O)(=O)c4ccc(N[C@H](CCN5CCOCC5)CSc5ccccc5)c(S(=O)(=O)C(F)(F)F)c4)cc3)CC2)C1 [Navitoclax] + Cc1nc(Nc2ncc(C(=O)Nc3c(C)cccc3Cl)s2)cc(N2CCN(CCO)CC2)n1 [Dasatinib] (partner 0.075 µM) | 0.308
CC1(C)CCC(c2ccc(Cl)cc2)=C(CN2CCN(c3ccc(C(=O)NS(=O)(=O)c4ccc(N[C@H](CCN5CCOCC5)CSc5ccccc5)c(S(=O)(=O)C(F)(F)F)c4)cc3)CC2)C1 [Navitoclax] + CS(=O)(=O)CCNCc1ccc(-c2ccc3ncnc(Nc4ccc(OCc5cccc(F)c5)c(Cl)c4)c3c2)o1 [Lapatinib] (partner 2 µM) | 0.91
CC1(C)CCC(c2ccc(Cl)cc2)=C(CN2CCN(c3ccc(C(=O)NS(=O)(=O)c4ccc(N[C@H](CCN5CCOCC5)CSc5ccccc5)c(S(=O)(=O)C(F)(F)F)c4)cc3)CC2)C1 [Navitoclax] + Cc1cc(Nc2cc(N3CCN(C)CC3)nc(Sc3ccc(NC(=O)C4CC4)cc3)n2)n[nH]1 [Tozasertib] (partner 0.1 µM) | 0.222
CC1(C)CCC(c2ccc(Cl)cc2)=C(CN2CCN(c3ccc(C(=O)NS(=O)(=O)c4ccc(N[C@H](CCN5CCOCC5)CSc5ccccc5)c(S(=O)(=O)C(F)(F)F)c4)cc3)CC2)C1 [Navitoclax] + CC(=O)c1c(C)c2cnc(Nc3ccc(N4CCNCC4)cn3)nc2n(C2CCCC2)c1=O [Palbociclib] (partner 0.5 µM) | 0.658
CC1(C)CCC(c2ccc(Cl)cc2)=C(CN2CCN(c3ccc(C(=O)NS(=O)(=O)c4ccc(N[C@H](CCN5CCOCC5)CSc5ccccc5)c(S(=O)(=O)C(F)(F)F)c4)cc3)CC2)C1 [Navitoclax] + O=C(CCCCCCC(=O)Nc1ccccc1)NO [Vorinostat] (partner 1 µM) | 0.842

* * *

Test system: NCI-H3122
Assay: relative viability (nuclei count vs DMSO), 5 days (fraction); higher = more cells survive
Conditions: first compound 1 µM
Overview of reported relative viability across a group of compounds:

compound | subject.of.test | relative viability
NC(=O)Nc1cc(-c2cccc(F)c2)sc1C(=O)N[C@H]1CCCNC1 [AZD7762] + CS(=O)(=O)N1CCN(Cc2cc3nc(-c4cccc5[nH]ncc45)nc(N4CCOCC4)c3s2)CC1 [Pictilisib] (partner 1 µM) | NCI-H3122 | 0.332
NC(=O)Nc1cc(-c2cccc(F)c2)sc1C(=O)N[C@H]1CCCNC1 [AZD7762] + CC(=O)c1c(C)c2cnc(Nc3ccc(N4CCNCC4)cn3)nc2n(C2CCCC2)c1=O [Palbociclib] (partner 0.5 µM) | NCI-H3122 | 0.191
NC(=O)Nc1cc(-c2cccc(F)c2)sc1C(=O)N[C@H]1CCCNC1 [AZD7762] + N=C(N)NC(=N)NCCc1ccccc1 [Phenformin] (partner 250 µM) | NCI-H3122 | 0.317

* * *

Test system: EPLC-272H
Assay: relative viability (nuclei count vs DMSO), 5 days (fraction); higher = more cells survive
Conditions: first compound 0.1 µM

molecule | relative viability
NC(=O)Nc1cc(-c2cccc(F)c2)sc1C(=O)N[C@H]1CCCNC1 [AZD7762] + CC(C)C[C@H](NC(=O)[C@H](Cc1ccccc1)NC(=O)c1cnccn1)B(O)O [Bortezomib] (partner 0.002 µM) | 1.02
NC(=O)Nc1cc(-c2cccc(F)c2)sc1C(=O)N[C@H]1CCCNC1 [AZD7762] + Cc1cc(Nc2cc(N3CCN(C)CC3)nc(Sc3ccc(NC(=O)C4CC4)cc3)n2)n[nH]1 [Tozasertib] (partner 0.1 µM) | 0.248
NC(=O)Nc1cc(-c2cccc(F)c2)sc1C(=O)N[C@H]1CCCNC1 [AZD7762] + Cc1nc(NC(=O)N2CCC[C@H]2C(N)=O)sc1-c1ccnc(C(C)(C)C(F)(F)F)c1 [Alpelisib] (partner 2 µM) | 1.13
NC(=O)Nc1cc(-c2cccc(F)c2)sc1C(=O)N[C@H]1CCCNC1 [AZD7762] + CC1(C)CCC(c2ccc(Cl)cc2)=C(CN2CCN(c3ccc(C(=O)NS(=O)(=O)c4ccc(N[C@H](CCN5CCOCC5)CSc5ccccc5)c(S(=O)(=O)C(F)(F)F)c4)cc3)CC2)C1 [Navitoclax] (partner 0.5 µM) | 1.15
NC(=O)Nc1cc(-c2cccc(F)c2)sc1C(=O)N[C@H]1CCCNC1 [AZD7762] + CS(=O)(=O)CCNCc1ccc(-c2ccc3ncnc(Nc4ccc(OCc5cccc(F)c5)c(Cl)c4)c3c2)o1 [Lapatinib] (partner 2 µM) | 0.846
NC(=O)Nc1cc(-c2cccc(F)c2)sc1C(=O)N[C@H]1CCCNC1 [AZD7762] + Nc1ncn([C@H]2C[C@H](O)[C@@H](CO)O2)c(=O)n1 [Decitabine] (partner 2 µM) | 0.356
NC(=O)Nc1cc(-c2cccc(F)c2)sc1C(=O)N[C@H]1CCCNC1 [AZD7762] + CC(=O)c1c(C)c2cnc(Nc3ccc(N4CCNCC4)cn3)nc2n(C2CCCC2)c1=O [Palbociclib] (partner 0.5 µM) | 0.351
NC(=O)Nc1cc(-c2cccc(F)c2)sc1C(=O)N[C@H]1CCCNC1 [AZD7762] + CC(=O)Nc1cccc(-n2c(=O)n(C3CC3)c(=O)c3c(Nc4ccc(I)cc4F)n(C)c(=O)c(C)c32)c1 [Trametinib] (partner 0.02 µM) | 0.277
NC(=O)Nc1cc(-c2cccc(F)c2)sc1C(=O)N[C@H]1CCCNC1 [AZD7762] + Nc1nc2[nH]cc(CCc3ccc(C(=O)N[C@@H](CCC(=O)O)C(=O)O)cc3)c2c(=O)[nH]1 [Pemetrexed] (partner 0.2 µM) | 0.174

* * *

Test system: NCI-H520
Test: relative viability (nuclei count vs DMSO), 5 days (fraction); higher = more cells survive
Details: first compound 0.5 µM
Known relative viability of a selection of compounds

compound | relative viability
CC1(C)CCC(c2ccc(Cl)cc2)=C(CN2CCN(c3ccc(C(=O)NS(=O)(=O)c4ccc(N[C@H](CCN5CCOCC5)CSc5ccccc5)c(S(=O)(=O)C(F)(F)F)c4)cc3)CC2)C1 [Navitoclax] + O=C(CCCCCCC(=O)Nc1ccccc1)NO [Vorinostat] (partner 1 µM) | 0.749
CC1(C)CCC(c2ccc(Cl)cc2)=C(CN2CCN(c3ccc(C(=O)NS(=O)(=O)c4ccc(N[C@H](CCN5CCOCC5)CSc5ccccc5)c(S(=O)(=O)C(F)(F)F)c4)cc3)CC2)C1 [Navitoclax] + Nc1nc2[nH]cc(CCc3ccc(C(=O)N[C@@H](CCC(=O)O)C(=O)O)cc3)c2c(=O)[nH]1 [Pemetrexed] (partner 0.2 µM) | 0.681
CC1(C)CCC(c2ccc(Cl)cc2)=C(CN2CCN(c3ccc(C(=O)NS(=O)(=O)c4ccc(N[C@H](CCN5CCOCC5)CSc5ccccc5)c(S(=O)(=O)C(F)(F)F)c4)cc3)CC2)C1 [Navitoclax] + COc1cc2c(Oc3ccc(NC(=O)C4(C(=O)Nc5ccc(F)cc5)CC4)cc3F)ccnc2cc1OCCCN1CCOCC1 [Foretinib] (partner 0.25 µM) | 0.61
CC1(C)CCC(c2ccc(Cl)cc2)=C(CN2CCN(c3ccc(C(=O)NS(=O)(=O)c4ccc(N[C@H](CCN5CCOCC5)CSc5ccccc5)c(S(=O)(=O)C(F)(F)F)c4)cc3)CC2)C1 [Navitoclax] + Cc1cc(Nc2cc(N3CCN(C)CC3)nc(Sc3ccc(NC(=O)C4CC4)cc3)n2)n[nH]1 [Tozasertib] (partner 0.1 µM) | 0.392
CC1(C)CCC(c2ccc(Cl)cc2)=C(CN2CCN(c3ccc(C(=O)NS(=O)(=O)c4ccc(N[C@H](CCN5CCOCC5)CSc5ccccc5)c(S(=O)(=O)C(F)(F)F)c4)cc3)CC2)C1 [Navitoclax] + CC(=O)Nc1cccc(-n2c(=O)n(C3CC3)c(=O)c3c(Nc4ccc(I)cc4F)n(C)c(=O)c(C)c32)c1 [Trametinib] (partner 0.02 µM) | 0.693
CC1(C)CCC(c2ccc(Cl)cc2)=C(CN2CCN(c3ccc(C(=O)NS(=O)(=O)c4ccc(N[C@H](CCN5CCOCC5)CSc5ccccc5)c(S(=O)(=O)C(F)(F)F)c4)cc3)CC2)C1 [Navitoclax] + CS(=O)(=O)N1CCN(Cc2cc3nc(-c4cccc5[nH]ncc45)nc(N4CCOCC4)c3s2)CC1 [Pictilisib] (partner 1 µM) | 0.281
